- Tested on: KG-1a
- TEST_DESCRIPTION: Antiproliferative activity against human KG1a cells at IC20 after 48 hrs by trypan blue exclusion assay relative to control
- Type: functional
VALUE_KIND: Activity
Write the numeric value and follow it with the unit.

Illustrative cases are given below, each with its answer.
# COMPOUND, VALUE_KIND, MEASURED_VALUE
records = [
    ("CC(C)=C1C[C@H]2[C@@H](CC[C@]2(C)O)[C@](C)(O)CC1=O [ZEDOARONDIOL]", "Activity", "30.48%"),
    ("C/C1=C\\Cc2c(C)coc2C/C(C)=C/CC1 [ISOFURANODIENE]", "Activity", "19.58%"),
    ("CC(C)=C1CC(=O)[C@@H](C)CC/C=C(\\C)CC1=O", "Activity", "19.92%"),
]

Turning now to a further record.
q: Consider the compound shown here: CC(C)=C1C[C@@H]2O[C@@]2(C)CC/C=C(\C)CC1=O What is its recorded Activity?
a: 24.27%
